target entity: T1, recombinant human CD63 extracellular loop 2 expressed with a C-terminal human Fc tag (human)
T1 construct: also called hCD63 EC loop 2-hFc; human CD63 EC loop 2-Fc
T1 sequence (chain, as listed by the source limits assumed): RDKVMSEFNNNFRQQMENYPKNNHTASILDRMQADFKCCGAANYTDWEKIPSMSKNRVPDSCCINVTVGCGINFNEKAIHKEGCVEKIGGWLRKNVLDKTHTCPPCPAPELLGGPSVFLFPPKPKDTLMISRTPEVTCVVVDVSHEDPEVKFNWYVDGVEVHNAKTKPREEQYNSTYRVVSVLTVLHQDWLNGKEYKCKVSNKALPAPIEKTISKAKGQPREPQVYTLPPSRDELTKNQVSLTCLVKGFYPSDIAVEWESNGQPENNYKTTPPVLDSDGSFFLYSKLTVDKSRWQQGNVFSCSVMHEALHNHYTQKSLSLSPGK
assay protocol: SPR Biacore, mAb captured, 37C
assay endpoint: koff (s⁻¹)
Give the value in s⁻¹ but do not write s⁻¹ after it.

binder	koff [s⁻¹]
H1M12386N (antibody, V domains shown) VH: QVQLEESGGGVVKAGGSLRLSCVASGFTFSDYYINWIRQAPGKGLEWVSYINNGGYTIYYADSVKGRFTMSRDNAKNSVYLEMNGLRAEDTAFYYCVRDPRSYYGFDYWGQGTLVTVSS VL: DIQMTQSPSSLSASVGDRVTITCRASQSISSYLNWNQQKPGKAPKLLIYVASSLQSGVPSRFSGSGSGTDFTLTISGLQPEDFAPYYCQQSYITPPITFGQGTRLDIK	0.000631
H2M12454N (antibody, V domains shown, also called H2bM12454N) VH: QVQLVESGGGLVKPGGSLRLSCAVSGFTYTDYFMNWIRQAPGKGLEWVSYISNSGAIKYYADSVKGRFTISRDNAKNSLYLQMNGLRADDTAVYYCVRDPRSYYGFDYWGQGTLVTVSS VL: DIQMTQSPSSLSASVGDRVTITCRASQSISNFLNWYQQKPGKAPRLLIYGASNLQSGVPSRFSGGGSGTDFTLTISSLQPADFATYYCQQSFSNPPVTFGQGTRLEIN	0.000777
H2M13022N (antibody, V domains shown, also called H2bM13022N) VH: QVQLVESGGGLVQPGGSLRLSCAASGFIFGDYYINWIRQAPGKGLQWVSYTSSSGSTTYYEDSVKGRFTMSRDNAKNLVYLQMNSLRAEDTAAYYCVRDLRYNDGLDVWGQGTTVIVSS VL: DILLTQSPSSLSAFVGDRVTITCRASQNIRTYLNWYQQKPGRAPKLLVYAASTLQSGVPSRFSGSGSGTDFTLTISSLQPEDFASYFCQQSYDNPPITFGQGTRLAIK	0.000562
H2M12385N (antibody, V domains shown, also called H2bM12385N; H2bM12385) VH: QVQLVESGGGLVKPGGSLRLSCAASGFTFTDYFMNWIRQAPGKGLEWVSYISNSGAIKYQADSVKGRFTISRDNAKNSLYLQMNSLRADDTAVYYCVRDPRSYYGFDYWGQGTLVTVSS VL: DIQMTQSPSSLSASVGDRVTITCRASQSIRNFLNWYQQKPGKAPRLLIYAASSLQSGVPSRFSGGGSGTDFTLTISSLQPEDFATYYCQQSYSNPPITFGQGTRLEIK	0.0017
H2M12452N (antibody, V domains shown, also called H2aM12452N) VH: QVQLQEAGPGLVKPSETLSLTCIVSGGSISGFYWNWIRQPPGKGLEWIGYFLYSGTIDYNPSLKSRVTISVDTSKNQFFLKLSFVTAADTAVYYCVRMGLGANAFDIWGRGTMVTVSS VL: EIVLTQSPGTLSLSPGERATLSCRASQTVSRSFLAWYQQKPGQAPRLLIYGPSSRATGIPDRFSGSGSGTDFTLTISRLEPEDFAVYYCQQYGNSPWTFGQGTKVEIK	0.000857

Quick check: koff of H1M12362N (antibody, V domains shown) VH: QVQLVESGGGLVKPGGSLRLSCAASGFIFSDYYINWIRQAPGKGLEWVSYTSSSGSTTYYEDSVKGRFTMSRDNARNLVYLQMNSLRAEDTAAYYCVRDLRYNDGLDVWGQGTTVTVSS VL: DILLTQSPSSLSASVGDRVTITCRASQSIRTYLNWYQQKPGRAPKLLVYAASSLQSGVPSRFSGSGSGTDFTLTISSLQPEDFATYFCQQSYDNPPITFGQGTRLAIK ?
0.000669

Which value of koff has been reported for H2M12450N (antibody, V domains shown, also called H2aM12450N; mAb12450) VH: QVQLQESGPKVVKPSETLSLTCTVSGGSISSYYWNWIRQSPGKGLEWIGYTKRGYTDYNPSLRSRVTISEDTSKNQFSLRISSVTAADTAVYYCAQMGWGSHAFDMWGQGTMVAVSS VL: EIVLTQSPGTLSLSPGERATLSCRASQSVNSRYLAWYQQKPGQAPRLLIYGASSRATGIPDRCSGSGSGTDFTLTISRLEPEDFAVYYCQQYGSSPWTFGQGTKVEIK in the records?
4.89e-05

Origin of measurements: patent US20210079109A1
